Listing of pKi toward UniProt:P23977, each taken from a published source.
Sequence (P23977 whole entry): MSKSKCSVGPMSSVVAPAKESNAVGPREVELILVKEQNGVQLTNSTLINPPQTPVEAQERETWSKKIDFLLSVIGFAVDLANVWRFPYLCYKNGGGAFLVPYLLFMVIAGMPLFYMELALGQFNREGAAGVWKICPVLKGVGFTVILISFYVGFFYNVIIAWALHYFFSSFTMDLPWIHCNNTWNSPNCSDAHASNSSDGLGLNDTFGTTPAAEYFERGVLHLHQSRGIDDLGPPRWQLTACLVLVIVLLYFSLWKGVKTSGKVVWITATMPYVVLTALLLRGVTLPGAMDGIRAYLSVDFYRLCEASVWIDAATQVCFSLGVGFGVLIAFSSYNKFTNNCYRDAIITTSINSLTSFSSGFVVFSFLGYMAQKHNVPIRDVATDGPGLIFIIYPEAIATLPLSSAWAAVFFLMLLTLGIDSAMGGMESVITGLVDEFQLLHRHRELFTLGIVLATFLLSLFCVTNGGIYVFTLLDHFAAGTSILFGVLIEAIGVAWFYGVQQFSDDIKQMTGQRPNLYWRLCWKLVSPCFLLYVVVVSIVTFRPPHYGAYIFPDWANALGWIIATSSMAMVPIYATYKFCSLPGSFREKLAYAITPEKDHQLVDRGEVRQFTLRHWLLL
Keep it numeric: pKi is minus log10 of the concentration in mol/L.

Example entries begin here.
[
  {
    "compound": "Ic1ccc(O[C@@H](c2ccccc2)[C@H]2CNCCO2)cc1",
    "pKi": 5.68
  },
  {
    "compound": "Cc1ccc(Sc2ccccc2CN(C)C)c(N)c1",
    "pKi": 6.00
  },
  {
    "compound": "COc1ccc(OC[C@H]2CN(C)CC[C@@H]2c2ccccc2)cc1",
    "pKi": 5.98
  },
  {
    "compound": "Ic1cccc(O[C@@H](c2ccccc2)[C@H]2CNCCO2)c1",
    "pKi": 5.72
  }
]

Query block: Please tell me: pKi of CSc1ccc(C2CN3CCCC3c3ccccc32)cc1 (stereo not drawn) , system UniProt:P23977?
Result block: 7.16
